Origin of measurements: PubChem BioAssay (NCI)

- System: NCI-H522 lung
- protocol-details: NCI tumour cell line growth inhibition, 48 h
Where a SMILES comes first, the peptide text is derived from it. The star is where a group is joined. Pentanoyl = CCCCC(=O)*; Boc = CC(C)(C)OC(=O)*
The entries below are paired with their reported TGI.

[
  {
    "molecule": "CCCCC(=O)Oc1ccc(CC(NC(=O)OC(C)(C)C)C(=O)NC(C)C(=O)NC(Cc2ccccc2)C(=O)NCC(N)=O)cc1 (centres undefined) (Boc-Y(Pentanoyl)AFG-NH2; configuration not given here)",
    "recorded-result": "39.5 µM"
  },
  {
    "molecule": "O=C(c1cc2ccccc2o1)N(Cc1ccccc1)c1ccccc1",
    "recorded-result": "33.9 µM"
  },
  {
    "molecule": "O=C(Nc1ccc(Cl)cc1F)c1cc(I)ccc1O",
    "recorded-result": "10.5 µM"
  },
  {
    "molecule": "O=C1N(c2ccccc2)C(=O)C2(SC=NN2Cc2ccccc2)N1c1ccccc1 (centres undefined)",
    "recorded-result": "> 100 µM"
  }
]

Here O=S(=O)(O)c1ccc(-c2nnc(-c3ccccn3)nc2-c2ccc(S(=O)(=O)O)o2)o1 was tested on NCI-H522 lung, and its TGI came to > 100 µM

Let me check: Cc1ccc(C[P+]2(c3ccccc3)CCCCC2)cc1 , system NCI-H522 lung, measured TGI is > 100 µM

====

- Tested on: OVCAR-8 ovarian
- protocol-details: NCI tumour cell line growth inhibition, 48 h
property-label: TGI

[
  {
    "compound": "CC(=O)O[C@H]1CC[C@@]2(C)C(=CC[C@@H]3[C@@H]2CC[C@]2(C)Nc4c(cnn4S(C)(=O)=O)C[C@@H]32)C1",
    "assayed-target": "OVCAR-8 ovarian",
    "recorded-result": "> 100 µM"
  },
  {
    "compound": "O=C(O)CCSCc1ccc(I)cc1",
    "assayed-target": "OVCAR-8 ovarian",
    "recorded-result": "> 100 µM"
  },
  {
    "compound": "C=CC[P+](c1ccccc1)(c1ccccc1)c1ccccc1",
    "assayed-target": "OVCAR-8 ovarian",
    "recorded-result": "> 100 µM"
  }
]

Looking up CCN(CC)CCCNc1nc(=O)[nH]c(C)c1C(=O)Nc1c2ccccc2nc2ccccc12 , I found its TGI recorded as 59.1 µM

TGI reading for COC(=O)C1=C(C(=O)OC)C23CC1C1C(C(=O)OC)=C(C(=O)OC)C12C1C=CC3C2C(=O)OC(=O)C21 (configuration not stated) : > 100 µM

Item: O=C1C(c2c(O)[nH]c3ccc(S(=O)(=O)O)cc23)=Nc2ccc(Br)cc21 | TGI: > 100 µM

Notebook: CC/C(=C(/CC)c1ccc([O-])cc1)c1ccc([O-])cc1.CC/C(=C(\CC)c1ccc([O-])cc1)c1ccc([O-])cc1.O=C([CH-]C(=O)c1ccccc1)c1ccccc1.O=C([CH-]C(=O)c1ccccc1)c1ccccc1.O=C([CH-]C(=O)c1ccccc1)c1ccccc1.O=C([CH-]C(=O)c1ccccc1)c1ccccc1.[Ti+4].[Ti+4] , TGI read as 50.1 µM

====

- Tested on: RXF 393 renal
- protocol-details: NCI tumour cell line growth inhibition, 48 h
Label True when TGI is at or above 8 µM; anything below gets False.

Worked examples follow.
[
  {
    "compound": "CC(=O)OC[C@@H]1[C@H]2CC[C@]3(C)[C@@H](OC(C)=O)CC[C@H]3[C@@H]2CC[C@H]1C1(C)SCCS1",
    "assayed-target": "RXF 393 renal",
    "answer-label": "True"
  },
  {
    "compound": "O=C(CC(C(=O)c1ccco1)c1cccs1)c1cccs1 (stereo not given)",
    "assayed-target": "RXF 393 renal",
    "answer-label": "True"
  },
  {
    "compound": "CCN1C(NN)=NS(=O)(=O)c2ccccc21",
    "assayed-target": "RXF 393 renal",
    "answer-label": "True"
  },
  {
    "compound": "Cc1cccc(C(=O)/C=C/SC(=NC#N)SCc2ccccc2)c1",
    "assayed-target": "RXF 393 renal",
    "answer-label": "True"
  }
]

Ask: I'd appreciate it if you could say whether CC(=O)OCC(=O)O[C@@H]1C[C@]2(C(C)C)O[C@@]1(C)[C@@H]1CC[C@@H](C)[C@H]1[C@@H]2OC(=O)/C=C/c1ccccc1 has TGI at least equal to 8 µM.
Reply: False
